Molecular target: T1, SNTG2, Q9NY99
T1 sequence (Q9NY99 68-166, limits assumed, looked up): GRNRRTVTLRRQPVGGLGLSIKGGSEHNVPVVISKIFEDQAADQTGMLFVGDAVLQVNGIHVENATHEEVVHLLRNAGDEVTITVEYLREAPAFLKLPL
Assay: holdup assay
Design: key: below the threshold = too weak to quantify, mostly under pKd 3.1 to 4
Conditions: plain residues with an end cap or a label only (N-terminal biotin on a linker: ado-ado)

# BINDER, pKd
measured = [
    ("EKCGKEFSEF [PRKACA, P17612]", "below the threshold"),
    ("QSYPSKHDYV [CLDN18, P56856]", "below the threshold"),
    ("EDLEDEWEVI [TECPR2, O15040]", "below the threshold"),
    ("RDPPAEWTRV [PTPN18, Q99952]", 4.19),
    ("KPGKGSETVV [FZD4, Q9ULV1]", 4.26),
    ("AEASVACSLC [PTGIR, P43119]", "below the threshold"),
    ("NNNVVKVDSV [MTNR1A, P48039]", "below the threshold"),
    ("NTLNRKTTPV [CACNG8, Q8WXS5]", 3.75),
]

Data origin, for the record: paper PMC9482650
